B1: library; a variant is named by its letters at N, in order (parent)
chain: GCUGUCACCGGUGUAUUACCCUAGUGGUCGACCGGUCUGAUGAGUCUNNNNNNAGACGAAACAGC

# Variants of: B1
# TEST: normalized RNA/DNA level with ligand (relative to sTRSVctl = 100) (log10 (% of sTRSVctl)); ligand: hypoxanthine (xanthine aptamer); higher = less ribozyme self-cleavage, higher mRNA level
# ASSAY SETUP: ligand concentration (+) RNA-Seq: 5 mM, HEK293T, reporter: mCherry (pCS4076), ligand present: yes
METRIC: normalized RNA/DNA level with ligand (log10)
Respond using a number only.

Take a look at these entries with their results.
1. GCUGUCACCGGUGUAUUACCCUAGUGGUCGACCGGUCUGAUGAGUCUUUUGCCAGACGAAACAGC [UUUGCC]	1.92
2. GCUGUCACCGGUGUAUUACCCUAGUGGUCGACCGGUCUGAUGAGUCUUAAGCUAGACGAAACAGC [UAAGCU]	1.95
3. GCUGUCACCGGUGUAUUACCCUAGUGGUCGACCGGUCUGAUGAGUCUGCCCUAAGACGAAACAGC [GCCCUA]	1.97
4. GCUGUCACCGGUGUAUUACCCUAGUGGUCGACCGGUCUGAUGAGUCUCCAAAGAGACGAAACAGC [CCAAAG]	1.88
5. GCUGUCACCGGUGUAUUACCCUAGUGGUCGACCGGUCUGAUGAGUCUAAGUCGAGACGAAACAGC [AAGUCG]	1.79
6. GCUGUCACCGGUGUAUUACCCUAGUGGUCGACCGGUCUGAUGAGUCUUACGAUAGACGAAACAGC [UACGAU]	1.92
7. GCUGUCACCGGUGUAUUACCCUAGUGGUCGACCGGUCUGAUGAGUCUAAGAUGAGACGAAACAGC [AAGAUG]	1.64
8. GCUGUCACCGGUGUAUUACCCUAGUGGUCGACCGGUCUGAUGAGUCUCUAGGAAGACGAAACAGC [CUAGGA]	1.94
9. GCUGUCACCGGUGUAUUACCCUAGUGGUCGACCGGUCUGAUGAGUCUAACAGGAGACGAAACAGC [AACAGG]	1.76
10. GCUGUCACCGGUGUAUUACCCUAGUGGUCGACCGGUCUGAUGAGUCUACGGCCAGACGAAACAGC [ACGGCC]	1.96

Input line: Item under review: GCUGUCACCGGUGUAUUACCCUAGUGGUCGACCGGUCUGAUGAGUCUGGCCGUAGACGAAACAGC [GGCCGU] . Reported normalized RNA/DNA level with ligand (log10)?
Output line: 1.95

Input line: Item under review: GCUGUCACCGGUGUAUUACCCUAGUGGUCGACCGGUCUGAUGAGUCUACGUCAAGACGAAACAGC [ACGUCA] . Reported normalized RNA/DNA level with ligand (log10)?
Output line: 1.94

Input line: Item under review: GCUGUCACCGGUGUAUUACCCUAGUGGUCGACCGGUCUGAUGAGUCUGGCCUUAGACGAAACAGC [GGCCUU] . Reported normalized RNA/DNA level with ligand (log10)?
Output line: 1.98

Input line: Item under review: GCUGUCACCGGUGUAUUACCCUAGUGGUCGACCGGUCUGAUGAGUCUCUAUCGAGACGAAACAGC [CUAUCG] . Reported normalized RNA/DNA level with ligand (log10)?
Output line: 1.96

Input line: Item under review: GCUGUCACCGGUGUAUUACCCUAGUGGUCGACCGGUCUGAUGAGUCUCUAUGGAGACGAAACAGC [CUAUGG] . Reported normalized RNA/DNA level with ligand (log10)?
Output line: 1.89
